Reference source: paper PMC12169847

- Target Entity: KEAP1 Kelch domain (Homo sapiens)
- Construct: HIS6 (N); made in house; host or cells: Escherichia coli BL21(DE3)
- Sequence (Q14145 321-609 limits assumed): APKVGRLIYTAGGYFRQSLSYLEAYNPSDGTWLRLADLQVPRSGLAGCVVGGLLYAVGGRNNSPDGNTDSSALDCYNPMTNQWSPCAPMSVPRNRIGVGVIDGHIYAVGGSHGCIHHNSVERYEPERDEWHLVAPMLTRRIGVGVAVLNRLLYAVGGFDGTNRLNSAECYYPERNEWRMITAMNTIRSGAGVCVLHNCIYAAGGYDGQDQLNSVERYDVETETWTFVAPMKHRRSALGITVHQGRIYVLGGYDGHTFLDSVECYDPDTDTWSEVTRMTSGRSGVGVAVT
- Procedure Text: Fluorescence polarization counter-screen, KEAP1 with TAMRA-NRF2 peptide
- Assay type: binding
- Reported Conditions: concentrations less than 20 µM
Property Measured: inhibitory effect in the KEAP1 counter-screening assay

O=C(O)c1cc(Cl)cc2c1NC(c1cccc(OC(F)(F)F)c1)C1C3CCC(C3)C21 (stereo not drawn): no inhibitory effect
O=C(O)c1cc(Cl)cc2c1NC(c1cccc(C(F)(F)F)c1)C1C3CCC(C3)C21 (stereo not drawn): no inhibitory effect

====

Observed pIC50 for GST-tagged KLHDC2 (Homo sapiens, UniProt Q9Y2U9), reported per entry below.
By convention, pIC50 is the negative base-10 log of a molar concentration.

COc1ccc(C2CC(c3cccc(F)c3)Nc3c(C(=O)O)cc(Br)cc32)cc1OC (centres unmarked): 5.60

// query Query the reported pIC50 for GST-tagged KLHDC2 (Homo sapiens, UniProt Q9Y2U9); item: Cc1ccc(C)c(C2Nc3c(C(=O)O)cc(Cl)cc3C3C4CCC(C4)C23)c1 (centres unmarked)
// result 5.89
